Cited source: patent EP3156398A1

biological target: CXCR3 (Homo sapiens); construct: expressed in transfected cells; host or cells: HEK293 / HEK293T cells, stably transfected; membrane preparations; experiment: [35S]GTPγS incorporation assay; assay type: biochemical; settings: % of CXCL11 mediated effect; membrane preparations of HEK293T stably expressing CXCR3; read-out: CXCR3 Efficacy (%) ± SEM
Sequence (P49682 whole entry): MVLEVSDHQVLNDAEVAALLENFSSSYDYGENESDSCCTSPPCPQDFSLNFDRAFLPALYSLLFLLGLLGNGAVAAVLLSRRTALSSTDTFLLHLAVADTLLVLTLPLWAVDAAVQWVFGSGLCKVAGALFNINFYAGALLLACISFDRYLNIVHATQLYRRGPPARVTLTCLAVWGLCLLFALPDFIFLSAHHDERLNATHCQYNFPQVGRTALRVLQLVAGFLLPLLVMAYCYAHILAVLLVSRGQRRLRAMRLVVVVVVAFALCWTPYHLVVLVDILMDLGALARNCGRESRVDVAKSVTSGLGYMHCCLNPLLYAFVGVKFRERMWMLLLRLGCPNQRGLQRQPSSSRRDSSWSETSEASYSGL
Emax values for the compounds below.
// units = %; emit number, no label

CC(C)(C)OC(=O)NCCCC[C@@H](NC(=O)[C@@H]1Cc2ccccc2CN1C(=O)CCC(=O)c1ccccc1)C(=O)NCC(c1ccccc1)c1ccccc1 [Compound 45]
33
CC(C)(C)OC(=O)NCCCC[C@H](NC(=O)[C@@H]1Cc2ccccc2CN1C(=O)CCC(=O)c1ccccc1)C(=O)NCC(c1ccccc1)c1ccccc1 [Compound 44]
47

--- query ---
Prompt: Please look at this compound and report its Emax: NCCCC[C@H](NC(=O)[C@@H]1Cc2ccccc2CN1C(=O)CCC(=O)c1ccccc1)C(=O)NCC(c1ccccc1)c1ccccc1.O=C(O)C(F)(F)F [Compound 46, 2,2,2-trifluoroacetate, reference compound]
Response: 109
